Each item that follows carries a reported melting point.

[
  {
    "compound": "Cn1c(SCC#CCN2CCCCC2)nc2c1c(=O)[nH]c(=O)n2C [Compound 10b]",
    "melting point": "223 to 225 °C"
  }
]

Fill in melting point for record CCN(CC)CC#CCSc1nc2c(c(=O)[nH]c(=O)n2C)n1C [Compound 10d]
186 to 188 °C

Fill in melting point for record Cn1cnc2nc(SCC#CCN3CCOCC3)nc(SCC#CCN3CCOCC3)c21 [Compound 5c]
121 to 123 °C

Fill in melting point for record Cn1cnc2nc(Cl)nc(SCC#CCN3CCCCC3)c21 [Compound 2a]
122 to 124 °C

Fill in melting point for record C#CCSc1nc(SCC#C)c2c(ncn2C)n1 [Compound 4, 2,6-di(prop-2-ynylthio)-7-methylpurine]
162 to 164 °C

Origin of the recorded values: paper PMC5904222
